Each entry below carries its recorded viability at 28.5 h, 10 µM.
experiment: in vitro; conditions: human, hela cells, % viability
Number in %, nothing else.

Known results for compounds:
• CC1(C)C(N(O)C(=O)Nc2cccc3ccccc23)N(c2cccc3ccccc23)C(=O)N1CC(=O)NN (stereo not shown) = 88.2
• CCn1cc(CCC(=O)NC2CCCOC2)c2ccccc21 (stereo not shown) = 88.7

Please give the measured viability at 28.5 h, 10 µM for this compound: CC(C)CNCC1CC(C(=O)N2CCC(Cc3ccccc3)CC2)=NO1 (stereo not shown) [CBK003718C]
89.7

// next record O=C(Nc1ccc2[nH]c(C3CCCCC3)nc2c1)C1CCCCC1
87.7
